- method_notes: self-splicing fitness, log relative to wild type (ln ratio); higher = more splicing; Tetrahymena group I intron in knt gene, E. coli kanamycin selection, DiMSum; sequences stand for … in CUCUCU…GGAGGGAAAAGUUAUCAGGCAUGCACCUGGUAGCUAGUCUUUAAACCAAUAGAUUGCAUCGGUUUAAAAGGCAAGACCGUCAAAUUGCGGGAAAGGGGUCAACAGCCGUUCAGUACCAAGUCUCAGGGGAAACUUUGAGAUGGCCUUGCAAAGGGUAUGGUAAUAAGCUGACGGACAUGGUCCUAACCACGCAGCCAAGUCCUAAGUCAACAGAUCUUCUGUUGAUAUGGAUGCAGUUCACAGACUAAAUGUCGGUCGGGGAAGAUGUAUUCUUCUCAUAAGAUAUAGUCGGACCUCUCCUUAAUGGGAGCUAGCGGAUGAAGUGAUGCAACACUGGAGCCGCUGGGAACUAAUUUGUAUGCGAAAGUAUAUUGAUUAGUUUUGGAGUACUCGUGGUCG;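 also: selection with 25 µg/mL kanamycin versus none on LB agar overnight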
- recorded_conditions: 30 °C
Labels assigned by self-splicing fitness (ln) range: low = under -3, moderate = from -3 up to -2, high = -2 and over

>  <sequence_string>
AUACAGCAAUAUUACGGUUC

>  <label_class>
moderate

$$$$
>  <sequence_string>
CAUCAGCAAUAUUACGCUCC

>  <label_class>
moderate

$$$$
>  <sequence_string>
CGGCAGCAAUAUUACGGUCC

>  <label_class>
high

$$$$
>  <sequence_string>
GGAGAGCAAUAUUACGGGCC

>  <label_class>
moderate

$$$$
>  <sequence_string>
GUUAAGCAAUAUUACGCGAG

>  <label_class>
high

$$$$
>  <sequence_string>
CCAAAGCAAUAUUACGCUUC

>  <label_class>
low

$$$$
>  <sequence_string>
ACUUAGCAAUAUUACGACUA

>  <label_class>
high

$$$$
>  <sequence_string>
GAGUAGCAAUAUUACGAGUA

>  <label_class>
high

$$$$
>  <sequence_string>
GACUAGCAAUAUUACGACGU

>  <label_class>
high

$$$$
>  <sequence_string>
UAAAAGCAAUAUUACGAUCC

>  <label_class>
moderate

$$$$
>  <sequence_string>
GUAGAGCAAUAUUACGCACC

>  <label_class>
moderate

$$$$
>  <sequence_string>
UGCUAGCAAUAUUACGUUGA

>  <label_class>
moderate

$$$$
>  <sequence_string>
UCUCAGCAAUAUUACGCGUC

>  <label_class>
low

$$$$
>  <sequence_string>
CCCGAGCAAUAUUACGCCAG

>  <label_class>
moderate

$$$$
>  <sequence_string>
AUCGAGCAAUAUUACGUCAG

>  <label_class>
low

$$$$
>  <sequence_string>
GCACAGCAAUAUUACGCCUG

>  <label_class>
high

$$$$
